Could you please report measured EC50, survival of iPSC-derived microglia (FIG. 23E) for the items listed next?
- tested_on: T1, human TREM2 on cells (human, UniProt Q9NZC2 19-230)
- T1 sequence: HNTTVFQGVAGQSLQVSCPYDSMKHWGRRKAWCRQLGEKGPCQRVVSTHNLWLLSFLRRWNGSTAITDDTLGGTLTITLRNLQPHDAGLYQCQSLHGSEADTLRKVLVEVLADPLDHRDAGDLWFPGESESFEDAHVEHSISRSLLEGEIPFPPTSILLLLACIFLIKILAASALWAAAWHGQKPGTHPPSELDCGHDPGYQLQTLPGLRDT
- assay_remarks: cell-based or functional assay
Give the value; after it, write the unit.

>>> assay_result("hPara.09.v2 Q100P (antibody, V domains shown, Human IgG1 N297G in the cell assays; also called huPara.09.v2 Q100P; hPara.09 Q100P) VH: EVQLVESGGGLVQPGGSLKLSCATSGFPFSNVWLHWVRQASGKGPEWVAHIKAKSDNYATYYAESVKGRFTISRDDSKNTVYLQMNSLKTEDTAVYYCTDILEYWGQGTLVTVSS VL: DVVMTQSPLSLPVTPGEPASISCRSSRSLLTSKGITSLYWYLQKPGQSPQLLIYRMSNLASGIPDRFSGSGSGTDFTLKISRVEAEDVGVYYCAQFLVYPYTFGPGTKVEIK")
"0.61 nM"
>>> assay_result("h3.10C2.v1 hIgG1 N297G (antibody, V domains shown, Human IgG1 N297G; also called h3.10C2.v1.huIgG1.N297G) VH: EVQLVESGGGLVQPGGSLKLSCATSGFPFSNVWMHWVRQASGKGLEWIAHIKAKSDNYATYYAESVKGRFTISRDDSKTTIYLQMNSLKTEDTAVYYCTGLDYWGQGTTVTVSS VL: DVVMTQSPLSLPVTPGEPASISCRSSRSLLTSKGITSLYWYLQKPGQSPQLLIYRMSNLASGVPDRFSGSGSGTDFTLKISRVEAEDVGVYYCAQFLVYPYTFGQGTKVEIK")
"0.35 nM"

Required: EC50, survival of iPSC-derived microglia (FIG. 23E), one value per binder below.
1. hPara.09.v2 Q100P/V104L (antibody, human IgG1, V domains shown) VH: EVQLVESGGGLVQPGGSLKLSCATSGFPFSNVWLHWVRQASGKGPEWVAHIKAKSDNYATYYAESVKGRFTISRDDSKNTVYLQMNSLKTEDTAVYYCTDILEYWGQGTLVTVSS VL: DVVMTQSPLSLPVTPGEPASISCRSSRSLLTSKGITSLYWYLQKPGQSPQLLIYRMSNLASGIPDRFSGSGSGTDFTLKISRVEAEDVGVYYCAQFLVYPYTFGPGTKLEIK
2. hPara.09.v2 hIgG1 N297G (antibody, V domains shown, also called hPara.09.H5.hIgG1.N297G) VH: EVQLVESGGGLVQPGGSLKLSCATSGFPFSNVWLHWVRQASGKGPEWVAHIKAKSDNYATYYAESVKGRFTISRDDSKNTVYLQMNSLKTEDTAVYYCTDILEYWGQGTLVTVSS VL: DVVMTQSPLSLPVTPGEPASISCRSSRSLLTSKGITSLYWYLQKPGQSPQLLIYRMSNLASGIPDRFSGSGSGTDFTLKISRVEAEDVGVYYCAQFLVYPYTFGQGTKVEIKR

0.19 nM
0.065 nM
